Every entry's value here was drawn from the supplement of paper PMC10567573.

Experiment: protein stability index of a GFP-peptide fusion (GPS, HEK-293T) (PSI 1-6); higher = more stable;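 further: 24-mer peptide tiles fused after GFP, lentivirally expressed, FACS-sorted into six equal bins by GFP/DsRed ratio, decoded by Illumina sequencing, PSI is the read-weighted mean bin number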
Conditions: treatment: DMSO; c terminus: a fixed tail appended

| SEQUENCE STRING | protein stability index |
| --- | --- |
| CEEEVFPLAMNYLDRFLSLEPVKK [CCND1] | 3.36 |
| VEGKGNGIKTVIVNMVDVAKALNR [EIF5] | 2.14 |
| NREHLVMMEKILGPIPSHMIHRTR [CLK3] | 2.79 |
| VSIKEAAGSSNLPAPERTMAGLSK [VENTX] | 4.28 |
| RIFAQYMVPHNLETTERMKCLYYL [PDS5B] | 2.91 |
| SFSEEGAVGYSSDSETLDLEEAEG [NFE2L1] | 5.75 |
| SLENSLREVEARYALQMEQLNGIL [KRT18] | 2.15 |
| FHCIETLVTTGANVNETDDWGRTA [ANKRD44] | 2.62 |
| LRVWDMFFCEGVKIIFRVGLVLLK [TBC1D10A] | 2.6 |
| WGRLTSYSGGGYYLDLPGSRQGSA [PKD2L1] | 2.63 |
| SMKASLEGNLAETENRYCVQLSQI [KRT17] | 3.22 |
| TPSLLRFALASLLQSAPDVKGRVR [ZSWIM9] | 2.5 |
| SVCFIFTITIGMFPAVTVEVKSSI [SLC29A1] | 3.17 |
| ADFGRLVNLQHLDLLNNKLVTLPV [LRRC59] | 2.3 |
| YMAICKPLHELITMNRRVCVLMLL [OR4A15] | 2.79 |
| WIHCFEGVTAIIFCVALSDYDLVL [GNAI1] | 3.2 |
| SCSEICYTFIIVPKMLVDLLSQKK [OR10K2] | 2.91 |
| DYEAGTLSFYNVTDRSHIYTFTDT [TRIM39] | 2.58 |
| ENSVEFEACLVAQCDALIDALNRR [TRIM9] | 2.88 |
| SGLSFITFICYVASSASAFLTAPL [CMTM3] | 3.15 |
| HFRGVSLNLTRKLAQQLCTALLFL [DYRK1B] | 2.04 |
| IELQAQHSMRNSLESTLAETEARY [KRT36] | 4.38 |
| SHEDVCVFKCSVSRETECSRVGKQ [CARM1] | 4.11 |
| SWGWDLGRSRLYHDGKNQPGVAYP [SPSB4] | 2.72 |
| ASASKFPSSGPVTPQPTALTFAKS [AUP1] | 4.33 |
| WIGYEHTSFCGQQFILERGEYPRW [CRYBA1] | 2.69 |
| PLQGTDEDAVASADFSSMLSEEEK [TPD52L1] | 5.48 |
| DRPDLSLTVLPKLQARERGEEQVE [C2CD2L] | 5.37 |
| FSNTSELAKDFIRRLLVKDPKRRM [DAPK3] | 2.36 |
| SSPDLDDMKLIILANRLCLPHLVA [RHOBTB2] | 2.55 |
| HSDHSSEMSLPEVQKDKYPEEFSL [SPATS1] | 5.3 |
| FGVTYLEDYSAEYIIQQGGWGTVF [BCL2L13] | 2.48 |
| ISLFFLIIYMGSFMLMLLVLGIQV [CDS1] | 3.18 |
| DVADDFENYHKLRRSSSKCIHDHH [NETO1] | 3.85 |
| AALIYFAISITAIAKYSDGASKAA [CMTM3] | 3.49 |
| ENYNNLANAVISVSGINHDVTSGD [CPN1] | 4.28 |
| GVVVEDGVCIRRCTVLRDARIRSH [GMPPB] | 2.83 |
| RRKQRYWPFSMDCTGTEAHISSCK [LOXL2] | 3.17 |
| IDSHLLLSVLPQLEFKLKSNDNEE [PDS5B] | 3.32 |
| EQEPIGTDLDAVRTPEPLEEFPKR [MYBL2] | 5.57 |
| IPQQQGMRPPMPPHGQYGGHHQGM [ZNF207] | 3.71 |
| AAQFTDFLIPMLEMVPEKRASAGE [SRPK2] | 3.6 |
| PMAEYNMPQYILREFKVTDARDGQ [PTPRD] | 3.8 |
| EGVEIMLGVCASGLLIYRDRLRIN [EPB41L3] | 2.75 |
| PLPVSADDTPEVLNRALSNLSSRW [CDS2] | 3.82 |
| GTVIGVTSCIVIILIIISVIVQIK [NETO1] | 3.16 |
| FVLYFLLACWTYGISVPSGLFVPS [CLCN6] | 3.49 |
| VCVRAHESVVKSEDFSLPAYMDRR [COX4I1] | 3.1 |
| EEAQPMAAPEGKRSLANGPNAGEQ [EID1] | 5.16 |
| GFAERRIDKFGFIVGSQGAEGALE [TBC1D10A] | 3.93 |
| MASTTTCTRFTDEYQLFEELGKGA [CAMK2D] | 3.74 |
| MSWRGRSTYYWPRPRRYVQPPEMI [GAGE1] | 2.64 |
| EHRVAGIFPRLSFKDKSTYIESST [CLPTM1] | 3.16 |

----------
Test: protein stability index of a GFP-peptide fusion (GPS, HEK-293T) (PSI 1-6); higher = more stable
Conditions: treatment: MLN4924 1 uM, 8 h; c terminus: a fixed tail appended
Recorded protein stability index determines the label; the label ranges are Low = under 3, Medium = from 3 up to 4, High = 4 and over

| SEQUENCE STRING | CLASS |
| --- | --- |
| MSWRGRSTYYWPRPRRYVQPPEMI [GAGE1] | Low |
| LNSEQAEQLERINDALSCEYECRR [FAM98B] | High |
| SSAGSVSPRSTSVTTTSSASVTTT [KRT13] | High |
| CQYEALVENNRRDVEAWFNTQTEE [KRT36] | Low |
| QQEVVVAGSSLPTSSKVNATVPSN [ACBD3] | High |
| DPQNGFDVNNLDPDLRSLFSRAGI [WAS] | Medium |
| TSPAKDSLSFEDFLDLLSVFSDTA [CIB1] | Low |
| SVCFIFTITIGMFPAVTVEVKSSI [SLC29A1] | Medium |
| ERHLVEIKQKLGMNLMNELKQNFS [TPD52L1] | Low |
| TLGGELGALEALELSPPLSPASHV [FOXJ1] | High |

----------
Assay: protein stability index of a GFP-peptide fusion (GPS, HEK-293T) (PSI 1-6); higher = more stable
Settings: treatment: MLN4924 1 uM, 8 h; c terminus: a fixed tail appended
Please mark True if the recorded protein stability index is equal to or greater than 3, and False if it falls below.

| SEQUENCE STRING | CLASS |
| --- | --- |
| RLPTDSHFPYDLHLRSQSLTMQDE [NEUROD6] | True |
| LRQQCAQVLRNNPDALSDVGEVPY [ELOA2] | True |
| YTFLYLVCISTKTQCSEEDQCKIN [FEM1B] | False |
| PMAEYNMPQYILREFKVTDARDGQ [PTPRD] | True |
| GGGLTGVSGSHFVGVDGVRAFLQT [PCDHGA10] | False |
| EFPDFYDSEEPVSTHQEAENEKDR [CHGB] | True |
| KETAHDLDVKSPPEPRSEVVPARL [RIPK4] | True |
| QQVDTNISVILPTVHEVDIFRCFC [DENND6A] | False |
| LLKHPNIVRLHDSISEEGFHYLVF [CAMK2D] | False |
| NCPAHWLAQDWERCNTTCGRGVKK [ADAMTSL2] | True |
| RRLEQRWGFGLEELYGLALRFFKE [ACBD3] | False |
| LDKSTKLVETAIQSLDEPGGATFL [TRIM63] | True |
| SETDFETEPETAPTTEPETEPEDD [GNAS] | True |
| IKAWMDRYEEANNNQYSEGVQREA [KMT2E] | True |
| VYCGAGVQKEHEEYMKNLLKVGGI [PCMTD2] | False |
| PELNNNQYNRSSNSNGGNLNSPPG [CDC14A] | True |
| PNLSLASEDEEEYESGYAFLPDLL [SMG5] | True |
| PASFPTWGCDLGVVTRVVTGVYPR [BRF1] | False |
| AKLVPMGFTTATEFHQRRSEIIQI [RAD51] | False |
| DCGLNLKQRGYFFLDERLYCESHA [PDLIM4] | False |
| RRDGKWQNVHFHRSGSPTVPIKPP [CAMK2D] | True |
| AGEGLVRSANGFPYREDEEGAFGE [MAP2] | True |
| HFRGVSLNLTRKLAQQLCTALLFL [DYRK1B] | False |
| SIPNLAEVKKKGKMKKLGQAMEED [HDAC6] | True |
| SNAERGTAEPFPRLHNLYSTPRCA [CBY2] | True |
